system: CCRF-CEM; assay: NCI tumour cell line growth inhibition, 48 h
Calls of active or inactive are those of the source. Cut-off read from the data, not from the text of the source: active = GI50 up to about 1.1 µM and inactive = higher. Where a SMILES comes first, the peptide text is derived from it. [ ]: non-standard residue; d: D form. Ac5c = NC1(C(=O)O)CCCC1
Your answer must be one of the following: active, inactive

INPUT: What classification did `Oc1cc(-c2ccc(F)cc2)nc2ncc(Cl)cc12` end up with in this test?
OUTPUT: inactive

INPUT: Just curious, what result did CSC[S+]([O-])C[C@H](CO)NC(=O)/C=C/c1c(C)[nH]c(=O)[nH]c1=O (stereo not given in full) get here?
OUTPUT: inactive

INPUT: Could you kindly confirm the outcome this assay logged for `CN(C)CCCNc1ccc2c(=O)n(CCN(C)C)c(=O)n3c4ccccc4c(=O)c1c23` ?
OUTPUT: active

INPUT: Per the assay record, what outcome was assigned to `Cn1c(=S)[nH]c(N)c(Cc2ccccc2)c1=O` ?
OUTPUT: inactive

INPUT: Write down the call the test reported for this molecule. Item: `C[N+](C)(C)CCOP(=O)([O-])OCCNC(=O)c1ccc2ccccc2c1`
OUTPUT: inactive

INPUT: Each molecule tested received a call. Report the one for `CC(C)[Si](OC/C(=C/COC(C)(C)C)[C@H]1CC=C(C(=O)c2ccccc2N2CN(C)C(=O)N(C)C2)C1)(C(C)C)C(C)C` .
OUTPUT: inactive

INPUT: So what was the verdict on `CCc1c(C)[nH]c2c1/C(=N/N=C1\CCCc3[nH]c(C)c(CC)c31)CCC2` in this test?
OUTPUT: inactive

INPUT: For CCc1ccc(/C=C/C(=O)C2CN(CC)CCC2(O)/C=C/c2ccc(CC)cc2)cc1 (stereo not given) , which call appears in the assay record?
OUTPUT: inactive

INPUT: Fill in: this test's call for `O=C(/C=C/c1c(O)ccc2ccccc12)c1ccccc1Cl` is ___
OUTPUT: inactive

INPUT: // param item: `Cn1c2ccc3cc2c(=S)c2cc(ccc21)OCCOCCOCCOCCOCCO3` ; yields the recorded call
OUTPUT: inactive

INPUT: Short answer needed: outcome of this test for `C[s+]1c2ccccc2c2ccccc21` ?
OUTPUT: inactive

INPUT: Given `O=c1[nH]nc(NCCc2ccccc2)c2nnn(Cc3ccccc3)c12` , state the outcome it received in this test.
OUTPUT: inactive

INPUT: Which outcome was entered for the molecule CN1C(=O)CC2(C)c3cc(O)cc(Br)c3N(C)C12 (stereo not given) in this test?
OUTPUT: inactive

INPUT: Please share the test call associated with `COc1ccc2c(c1)[n+]([O-])c(C(=O)C/C(=N/NC(=O)c1ccccc1O)C(=O)Nc1ccc(Cl)c(C(F)(F)F)c1)c(C)[n+]2[O-]` .
OUTPUT: inactive

INPUT: Outcome? N#Cc1cccc(N2C(=O)C3C4C=CC(C3C2=O)C2C(=O)N(c3cccc(C#N)c3)C(=O)C42)c1 (stereo not given)
OUTPUT: inactive

INPUT: So what was the verdict on `COc1cc2c(cc1OCCCN1C(=O)c3cccc4cccc(c34)C1=O)N=C[C@@H]1CCCN1C2=O` in this test?
OUTPUT: inactive

INPUT: Check the results log: what was the call for NC1(C(=O)NC2(C(=O)O)CCCC2)CCCC1 (H-[Ac5c]-[Ac5c]-OH) ?
OUTPUT: inactive

INPUT: So what was the verdict on `C[C@H]1CC[C@@H]2[C@@H](C)[C@H]3[C@H](C[C@H]4[C@@H]5CC=C6C[C@@H](O)CC[C@]6(C)[C@H]5CC[C@]34C)N2C1` in this test?
OUTPUT: inactive

INPUT: So what was the verdict on O=C1CSC2(CC(/C=C/c3cccc(Br)c3)=NN2c2cccc(S(=O)(=O)O)c2)N1c1nc2ccccc2s1 (stereo not given) in this test?
OUTPUT: inactive

INPUT: How was `COC(=O)C1(Cc2ccccc2)Cc2ccccc2C1` classified in this test?
OUTPUT: inactive

INPUT: Which outcome did this test record for the molecule Cc1ccc(CC(Cc2ccccc2C)C(=O)O)c(C(=O)O)c1 (stereo not given) ?
OUTPUT: inactive

INPUT: Check the results log: what was the call for Cc1ccccc1NC(=O)C(=O)CC(=O)C1CCOC1=O (stereo not given) ?
OUTPUT: inactive

INPUT: Query: recorded result category for `CCc1cccc(C(C)C)c1NC(=O)C(=O)Nn1c(S)nc2ccccc2c1=O` in this test
OUTPUT: inactive

INPUT: Short answer needed: outcome of this test for `CCCCNc1nc(SC)nc2[nH]cnc12` ?
OUTPUT: inactive

INPUT: What is the recorded call for this molecule in the test? `O=C(Oc1c(Cl)cc(C2(c3cc(Cl)c(OC(=O)c4ccccc4)c(Cl)c3)CCCCC2)cc1Cl)c1ccccc1`
OUTPUT: inactive

INPUT: Name the outcome recorded for `CCCCCCCCC(=O)NCCCNCCCNC(=O)CCCCCCCC` in the assay.
OUTPUT: inactive

INPUT: I would be grateful if you could indicate the recorded call for C=C(C)CC(C)(c1cc2ccccc2n1C)N1CCOCC1 (stereo not given) .
OUTPUT: inactive

INPUT: What was the test verdict on COc1ccc(-c2coc3cc(OC)cc(O)c3c2=O)cc1 [4',7-DIMETHOXY-5-HYDROXYGENISTEIN] ?
OUTPUT: inactive

INPUT: Hi team, can someone confirm the assay call for `Fc1ccc2c(c1)cc1ccc3cccc4ccc2c1c34` ?
OUTPUT: inactive

INPUT: Query: recorded result category for CCOC(=O)CC(NC(=O)c1nc[nH]c1/N=N/N(C)C)C(=O)OCC (stereo not given) in this test
OUTPUT: inactive

INPUT: Short answer needed: outcome of this test for `O=C(/C=C/c1ccccc1)CCC1C(=O)c2ccccc2C1=O` ?
OUTPUT: inactive

INPUT: In this assay, the call recorded for `CC(C)(C)CC(C)(C)c1ccc(O)c(C[N+](C)(C)[O-])c1` was what?
OUTPUT: inactive

INPUT: Dear all, I need the recorded test outcome for CCOC(=O)NC(=O)c1cn(C(CC)COC(=O)NCCCCCCNC(=O)OCC(CC)n2cc(C(=O)NC(=O)OCC)c(=O)[nH]c2=O)c(=O)[nH]c1=O (stereo not given) , thank you.
OUTPUT: inactive

INPUT: Test call for this molecule, please: `CCN(CC)CCOC(=O)CCN1CC2CCC(CC2)C1`
OUTPUT: inactive

INPUT: Check the results log: what was the call for `CC[C@H](C)N(CCN)C(=O)c1cc2ccccc2c(-c2ccccc2Cl)n1` ?
OUTPUT: inactive

INPUT: I'd appreciate the recorded outcome for `O=[N+]([O-])c1ccc(/C=C/c2cc(-c3ccccc3)nc3ccc4ccccc4c23)cc1` from this test.
OUTPUT: inactive

INPUT: So what was the verdict on NC1CC(=O)c2c(Br)csc21 (stereo not given) in this test?
OUTPUT: inactive

INPUT: Hello, I am checking results. What call was entered for COC(=O)/C(=N\NC(N)=S)C(C#N)c1ccccc1 (stereo not given) ?
OUTPUT: inactive

INPUT: I would be grateful if you could indicate the recorded call for `Fc1ccc(Oc2nc3ccccc3nc2-c2ccccc2)cc1` .
OUTPUT: inactive

INPUT: In this assay, the call recorded for C[N+]12C=CC=C1C(N1CCCC1)c1scc(-c3ccc(F)cc3)c12 (stereo not given) was what?
OUTPUT: inactive
